TGT: Vitamin D3 receptor (Homo sapiens) (UniProt P11473)
PROCEDURE SUMMARY: Displacement of fluormone from human full length VDR after 2 hrs by fluorescence polarization assay relative to 1,25D
ASSAY CONTEXT: concentration not given here
QUANTITY MEASURED: inhibition (%)

Entry C=C1/C(=C\C=C(/CCCCCC)c2cccc(CCCCCC(C)(C)O)c2)C[C@@H](O)C[C@@H]1O : reported inhibition = ?
9

a. C=C1/C(=C\C=C(/CC)c2cccc(CCCCCC(C)(C)O)c2)C[C@@H](O)C[C@@H]1O
b. C=C1/C(=C\C=C(/CCCC)c2cccc(CCCCCC(C)(C)O)c2)C[C@@H](O)C[C@@H]1O
Just tell me: smaller inhibition value, a or b ? Kindly give the label for the entry you pick.
b

A. C=C1/C(=C\C=C(/CCC)c2cccc(CCCCCC(C)(C)O)c2)C[C@@H](O)C[C@@H]1O
B. C=C1/C(=C\C=C(/CCCCCCC)c2cccc(CCCCCC(C)(C)O)c2)C[C@@H](O)C[C@@H]1O
Of A and B , whose reported inhibition is numerically smaller? Indicate your choice by writing its label.
B
(B: 7%, A: 10%)

====

TGT: Vitamin D3 receptor (Homo sapiens) (UniProt P11473)
Sequence (whole entry): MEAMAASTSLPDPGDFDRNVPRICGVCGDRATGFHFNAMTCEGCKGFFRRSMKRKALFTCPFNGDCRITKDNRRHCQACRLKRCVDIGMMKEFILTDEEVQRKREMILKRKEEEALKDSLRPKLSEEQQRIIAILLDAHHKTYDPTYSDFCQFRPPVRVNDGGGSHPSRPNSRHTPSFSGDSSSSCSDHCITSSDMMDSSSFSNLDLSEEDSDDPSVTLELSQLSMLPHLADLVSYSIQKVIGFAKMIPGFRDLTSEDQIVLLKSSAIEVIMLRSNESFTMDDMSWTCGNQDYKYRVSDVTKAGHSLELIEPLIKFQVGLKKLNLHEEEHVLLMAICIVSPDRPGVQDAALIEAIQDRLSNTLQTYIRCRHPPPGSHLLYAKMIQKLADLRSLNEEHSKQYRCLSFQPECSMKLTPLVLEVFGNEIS
PROCEDURE SUMMARY: Agonist activity at VDR in human MCF7 cells assessed as transcription of CYP24A1 gene after 24 hrs by luciferase reporter gene assay relative to 1,25D
Type: cell-based
QUANTITY MEASURED: Activity (%)

Suppose we examine the compound C=C1/C(=C\C=C(/CCC)c2cccc(CCCCCC(C)(C)O)c2)C[C@@H](O)C[C@@H]1O ; what Activity value has been reported?
21

I. C=C1/C(=C\C=C(/CCCCCC)c2cccc(CCCCCC(C)(C)O)c2)C[C@@H](O)C[C@@H]1O
II. C=C1/C(=C\C=C(/CC)c2cccc(CCCCCC(C)(C)O)c2)C[C@@H](O)C[C@@H]1O
III. C=C1/C(=C\C=C(/CCCCCCC)c2cccc(CCCCCC(C)(C)O)c2)C[C@@H](O)C[C@@H]1O
Put the compounds in ascending order of Activity. List each label, following the requested order.
III, I, II

====

PROCEDURE SUMMARY: Antiproliferative activity against 2D culture of human HaCaT cells assessed as cell proliferation at 100 nM after 48 hrs by MTT assay
Format: cell-based
ASSAY CONTEXT: HaCaT cells (2D culture), read-out: Activity
QUANTITY MEASURED: viability at 48 h, 0.1 µM (%)
Supply the numeric figure in %, leaving out any unit text.

What value of measured viability at 48 h, 0.1 µM is listed for C=C1/C(=C\C=C(/CCCCCCC)c2cccc(CCCCCC(C)(C)O)c2)C[C@@H](O)C[C@@H]1O ?
71

Request the reported viability at 48 h, 0.1 µM associated with C=C1/C(=C\C=C(/CCCC)c2cccc(CCCCCC(C)(C)O)c2)C[C@@H](O)C[C@@H]1O
71

// lookup viability at 48 h, 0.1 µM for C=C1/C(=C\C=C(/CCCCCC)c2cccc(CCCCCC(C)(C)O)c2)C[C@@H](O)C[C@@H]1O
74

I would be grateful if you could share the reported viability at 48 h, 0.1 µM for C=C1/C(=C\C=C(/CC)c2cccc(CCCCCC(C)(C)O)c2)C[C@@H](O)C[C@@H]1O .
68

viability at 48 h, 0.1 µM lookup needed for C=C1/C(=C\C=C2/CCC[C@]3(C)[C@@H]([C@H](C)CCCC(C)(C)O)CC[C@@H]23)C[C@@H](O)C[C@@H]1O , thanks.
69

More entries:
Data request, read-out viability at 48 h, 0.1 µM, for C=C1/C(=C\C=C(/CCC)c2cccc(CCCCCC(C)(C)O)c2)C[C@@H](O)C[C@@H]1O
71

====

Tested on: PC-3
PROCEDURE SUMMARY: Antiproliferative activity against 2D culture of human PC3 cells assessed as cell proliferation at 100 nM after 48 hrs by MTT assay
Assay type: functional
ASSAY CONTEXT: PC-3, 48 h, read-out: Activity
Measured growth at 0.1 µM accompanies every entry in the list below.
Your answer should be a plain number; it is taken to be in %.

Field: example entries. Status: answers known.
Entry C=C1/C(=C\C=C(/CCC)c2cccc(CCCCCC(C)(C)O)c2)C[C@@H](O)C[C@@H]1O has what growth at 0.1 µM?
83

Please give the measured growth at 0.1 µM for this compound: C=C1/C(=C\C=C(/CC)c2cccc(CCCCCC(C)(C)O)c2)C[C@@H](O)C[C@@H]1O
78

Dear colleague, I am looking for the recorded growth at 0.1 µM of the following compound: C=C1/C(=C\C=C2/CCC[C@]3(C)[C@@H]([C@H](C)CCCC(C)(C)O)CC[C@@H]23)C[C@@H](O)C[C@@H]1O [CALCITRIOL]
77

Given the compound C=C1/C(=C\C=C(/CCCCCCC)c2cccc(CCCCCC(C)(C)O)c2)C[C@@H](O)C[C@@H]1O , what is its reported growth at 0.1 µM?
79

# growth at 0.1 µM lookup, item C=C1/C(=C\C=C(/CCCCCC)c2cccc(CCCCCC(C)(C)O)c2)C[C@@H](O)C[C@@H]1O
80

Now examine the next entry.
What value of measured growth at 0.1 µM is listed for C=C1/C(=C\C=C(/CCCC)c2cccc(CCCCCC(C)(C)O)c2)C[C@@H](O)C[C@@H]1O ?
84

====

System: SK-OV-3
PROCEDURE SUMMARY: Antiproliferative activity against 2D culture of human SKOV3 cells assessed as cell proliferation at 100 nM after 48 hrs by MTT assay
Assay type: functional
ASSAY CONTEXT: SK-OV-3, 48 h, read-out: Activity
In this section, each of the compounds is paired with its reported growth at 0.1 µM.
Express your answer in %, writing the number without its unit.

Use these answered entries as a reference point.
Report growth at 0.1 µM for C=C1/C(=C\C=C(/CCCCCC)c2cccc(CCCCCC(C)(C)O)c2)C[C@@H](O)C[C@@H]1O tested on SK-OV-3.
76

Provide value of growth at 0.1 µM for this record tested with SK-OV-3: C=C1/C(=C\C=C2/CCC[C@]3(C)[C@@H]([C@H](C)CCCC(C)(C)O)CC[C@@H]23)C[C@@H](O)C[C@@H]1O [CALCITRIOL]
78

Under SK-OV-3: growth at 0.1 µM value of C=C1/C(=C\C=C(/CCC)c2cccc(CCCCCC(C)(C)O)c2)C[C@@H](O)C[C@@H]1O ?
82

***
What measured growth at 0.1 µM is associated with C=C1/C(=C\C=C(/CCCC)c2cccc(CCCCCC(C)(C)O)c2)C[C@@H](O)C[C@@H]1O on SK-OV-3?
81

Reported growth at 0.1 µM for SK-OV-3, given C=C1/C(=C\C=C(/CCCCCCC)c2cccc(CCCCCC(C)(C)O)c2)C[C@@H](O)C[C@@H]1O ?
83

Give growth at 0.1 µM (SK-OV-3) of the following compound: C=C1/C(=C\C=C(/CC)c2cccc(CCCCCC(C)(C)O)c2)C[C@@H](O)C[C@@H]1O
78

====

Below are IC50 values measured for Vitamin D3 receptor (Homo sapiens).

Provide the documented IC50 with Vitamin D3 receptor (Homo sapiens) as the system for C=C1/C(=C\C=C(/CCCC)c2cccc(CCCCCC(C)(C)O)c2)C[C@@H](O)C[C@@H]1O
10 to 18 nM

Please provide the recorded IC50 for C=C1/C(=C\C=C(/CC)c2cccc(CCCCCC(C)(C)O)c2)C[C@@H](O)C[C@@H]1O , tested on Vitamin D3 receptor (Homo sapiens).
4.5 to 11 nM

For the next question, use this molecule.
Recall the recorded IC50 for C=C1/C(=C\C=C(/CCCCCCC)c2cccc(CCCCCC(C)(C)O)c2)C[C@@H](O)C[C@@H]1O with Vitamin D3 receptor (Homo sapiens) and state it.
3.5 to 160 nM

====

Tested on: Mus musculus
PROCEDURE SUMMARY: Hypercalcemic activity in CD1 mouse assessed as serum calcium levels at 0.3 ug/kg, ip administered every other day for 3 weeks measured on […] relative to 1,25D
Type: ADME, organism-based
ASSAY CONTEXT: in vivo, 0.0003 mg/kg, 504 h
QUANTITY MEASURED: Activity (%)

I would be grateful if you could share the reported Activity for C=C1/C(=C\C=C(/CCCCCCC)c2cccc(CCCCCC(C)(C)O)c2)C[C@@H](O)C[C@@H]1O .
0

1. C=C1/C(=C\C=C(/CC)c2cccc(CCCCCC(C)(C)O)c2)C[C@@H](O)C[C@@H]1O
2. C=C1/C(=C\C=C(/CCCC)c2cccc(CCCCCC(C)(C)O)c2)C[C@@H](O)C[C@@H]1O
Between 1 and 2 , which one shows the larger Activity value? Mark your answer with the label of the selected entry.
2
(2: 34%, 1: 0%)

I. C=C1/C(=C\C=C(/CCC)c2cccc(CCCCCC(C)(C)O)c2)C[C@@H](O)C[C@@H]1O
II. C=C1/C(=C\C=C(/CCCCCC)c2cccc(CCCCCC(C)(C)O)c2)C[C@@H](O)C[C@@H]1O
Hi there, can you help? I need to know whether I or II has lower measured Activity. Lab log: write the label of the selected item as the result.
II
